Reported pIC50 values are given for each entry in this list.
assayTarget: recombinant glucosyltransferase domain of C. difficile Toxin B/TcdB (Clostridioides difficile)
Construct: 6-His (C); purchased R&D Systems 6246-GT
assayProtocol: biochemical
pIC50: −log10 of the molar value.

[[record]]
molecule = "O=C(O)c1ccc(CN2C(=O)c3ccc(Cl)cc3NC(=O)[C@H]2Cc2ccccn2)cc1F"
reading = "6.00 to 7.00"


Supply reported pIC50 belonging to this molecule: `O=C(O)c1ccc(CN2C(=O)c3ccc(Cl)cc3NC(=O)[C@H]2Cc2ccccc2)cc1`
5.00 to 6.00

Supply reported pIC50 belonging to this molecule: `Cc1nsc(NC(=O)c2ccc(CN3C(=O)c4ccc(Cl)cc4NC(=O)[C@H]3Cc3ccccn3)cc2)n1`
4.46 to 5.00

###

assayTarget: recombinant glucosyltransferase domain of C. difficile Toxin B/TcdB (Clostridioides difficile, UniProt P18177)
Construct: 6-His (C); purchased R&D Systems 6246-GT
Sequence (P18177 1-543): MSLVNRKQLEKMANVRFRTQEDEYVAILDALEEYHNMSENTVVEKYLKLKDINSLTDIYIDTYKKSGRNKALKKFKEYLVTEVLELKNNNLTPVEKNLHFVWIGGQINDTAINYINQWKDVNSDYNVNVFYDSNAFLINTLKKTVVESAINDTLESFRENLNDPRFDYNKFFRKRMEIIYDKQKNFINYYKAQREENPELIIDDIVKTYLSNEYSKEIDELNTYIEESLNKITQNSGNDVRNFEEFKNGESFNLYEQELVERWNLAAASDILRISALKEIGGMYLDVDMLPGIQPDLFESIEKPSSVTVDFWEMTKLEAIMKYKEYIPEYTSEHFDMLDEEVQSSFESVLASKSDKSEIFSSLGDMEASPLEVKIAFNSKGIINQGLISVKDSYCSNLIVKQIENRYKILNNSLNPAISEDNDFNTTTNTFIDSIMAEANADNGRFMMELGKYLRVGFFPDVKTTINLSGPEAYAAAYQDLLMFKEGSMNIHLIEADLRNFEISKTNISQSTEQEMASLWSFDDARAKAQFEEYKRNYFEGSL
assayProtocol: biochemical
pIC50: −log10 of the molar value.
Reported pIC50 values are given for each entry in this list.

Example entries and their recorded answers appear below.
[[record]]
molecule = "COc1ccc2c(c1)NC(=O)[C@@H](Cc1cccnc1)N(Cc1ccc(C(=O)O)cc1)C2=O"
property = "pIC50"
reading = "5.00 to 6.00"

[[record]]
molecule = "O=C(Nc1cc(CN2C(=O)c3ccc(Cl)cc3NC(=O)[C@H]2Cc2ccccn2)ccc1C(=O)O)c1cccnc1 [Example 22g]"
property = "pIC50"
reading = "5.00 to 6.00"

[[record]]
molecule = "Cc1cnc2c(c1)CCN2C(=O)c1ccc(CN2C(=O)c3ccc(Cl)cc3NC(=O)[C@H]2Cc2ccccn2)cc1F"
property = "pIC50"
reading = "> 7.00"

[[record]]
molecule = "C[C@@H]1C(=O)Nc2cc(Cl)ccc2C(=O)N1Cc1ccc(C(=O)Nc2ccc(N3CCN(C(=O)OC(C)(C)C)CC3)cn2)cc1"
property = "pIC50"
reading = "6.00 to 7.00"


Consider the record given below.
Supply reported pIC50 belonging to this molecule: `O=C(Nc1cccnn1)c1ccc(CN2C(=O)c3ccc(Cl)cc3NC(=O)[C@H]2Cc2ccccn2)cc1`
6.00 to 7.00

###

Reported pIC50 values are given for each entry in this list.
assayTarget: recombinant glucosyltransferase domain of C. difficile Toxin B/TcdB (Clostridioides difficile, UniProt P18177)
Construct: 6-His (C); purchased R&D Systems 6246-GT
assayProtocol: biochemical
pIC50: −log10 of the molar value. Structures can show the parent of a compound that is named as a salt.

[[record]]
compound = "O=C(O)c1ccc(CN2C(=O)c3ccc(Cl)cc3NC(=O)[C@H]2CCc2ccccc2)cc1 [Example 3c]"
reading = "4.46 to 5.00"

[[record]]
compound = "O=C(Nc1ccc(N2CCNCC2)cn1)c1ccc(CN2C(=O)c3ccc(Cl)cc3NC(=O)[C@H]2Cc2ccccn2)cc1 [Example 48a, hydrochloride]"
reading = "> 7.00"

[[record]]
compound = "O=C(O)c1ccc(CN2C(=O)c3ccc(Cl)cc3NC(=O)[C@H]2Cc2cscn2)cc1 [Example 1m]"
reading = "5.00 to 6.00"

[[record]]
compound = "O=C(O)c1ccc(CN2C(=O)c3ccc(Cl)cc3NC(=O)[C@H]2Cc2cccnc2)cc1 [Example 2a]"
reading = "6.00 to 7.00"

[[record]]
compound = "COc1cnc(NC(=O)c2ccc(CN3C(=O)c4ccc(Cl)cc4NC(=O)[C@H]3Cc3ccccn3)cc2Cl)nc1 [Example 5ab]"
reading = "> 7.00"

[[record]]
compound = "O=C(Nc1ccccn1)c1ccc(CN2C(=O)c3ccc(Cl)cc3NC(=O)[C@H]2Cc2ccccc2F)cc1 [Example 4an]"
reading = "> 7.00"


Supply reported pIC50 belonging to this compound: CC(C)c1ccc(NC(=O)c2ccc(CN3C(=O)c4ccc(Cl)cc4NC(=O)[C@H]3C)cc2)nc1 [Example 4az]
6.00 to 7.00

Supply reported pIC50 belonging to this compound: O=C(Nc1ccccn1)c1ccc(CN2C(=O)c3ccc([N+](=O)[O-])cc3NC(=O)[C@H]2Cc2ccc(Cl)c(Cl)c2)cc1 [Example 4ae]
6.00 to 7.00

Supply reported pIC50 belonging to this compound: Cc1cc(CN2C(=O)c3ccc(Cl)cc3NC(=O)[C@H]2Cc2ccccn2)cc(C)c1N [Example 24a]
4.46 to 5.00

Supply reported pIC50 belonging to this compound: COc1cnc(NC(=O)c2ccc(CN3C(=O)c4ccc(Cl)cc4NC(=O)[C@H]3Cc3ccccn3)cc2)cn1 [Example 5v]
> 7.00

Supply reported pIC50 belonging to this compound: O=C(O)c1ccc(CN2C(=O)c3ccc(Cl)cc3NC(=O)[C@H]2Cc2ccccn2)cc1-c1ccncc1 [Example 8a]
6.00 to 7.00

Supply reported pIC50 belonging to this compound: O=C(Nc1ccc(Cl)cn1)c1ccc(CN2C(=O)c3ccc(Cl)cc3NC(=O)[C@H]2Cc2cccnc2)cc1 [Example 5d]
> 7.00

Supply reported pIC50 belonging to this compound: Cc1nc2cccnc2c(=O)n1-c1ccc(CN2C(=O)c3ccc(Cl)cc3NC(=O)[C@H]2Cc2ccccn2)cc1 [Example 47a]
> 7.00

Supply reported pIC50 belonging to this compound: O=C(c1ccc(CN2C(=O)c3ccc(Cl)cc3NC(=O)[C@H]2Cc2ccccn2)cc1)c1cccn2ccnc12 [Example 34a]
> 7.00

Supply reported pIC50 belonging to this compound: O=C(Nc1ncccn1)c1ccc(CN2C(=O)c3ccc(Cl)cc3NC(=O)[C@H]2Cc2cccnc2)cc1 [Example 5b]
> 7.00

Supply reported pIC50 belonging to this compound: O=C(Nc1cc(Cl)ccn1)c1ccc(CN2C(=O)c3ccc(Cl)cc3NC(=O)[C@H]2Cc2cccnc2)cc1 [Example 4r]
> 7.00

Supply reported pIC50 belonging to this compound: O=C(c1ccccn1)c1ccc(CN2C(=O)c3ccc(Cl)cc3NC(=O)[C@H]2Cc2ccccn2)cc1Cl [Example 11g]
> 7.00

Supply reported pIC50 belonging to this compound: COc1cc(CN2C(=O)c3ccc(Cl)cc3NC(=O)[C@H]2Cc2ccccn2)ccc1C(=O)Nc1ccc(F)cn1 [Example 5aq]
> 7.00

Supply reported pIC50 belonging to this compound: Cc1cnc(NC(=O)c2ccc(CN3C(=O)c4ccc(Cl)cc4NC(=O)[C@H]3Cc3cccnc3)cc2)nc1 [Example 5h]
> 7.00

Supply reported pIC50 belonging to this compound: COc1cnc(NC(=O)c2ccc(CN3C(=O)c4ccc(Cl)cc4NC(=O)[C@H]3Cc3ccccn3)cc2C)cn1 [Example 5af]
> 7.00

Supply reported pIC50 belonging to this compound: CC(=O)Nc1cccc(-c2cc(CN3C(=O)c4ccc(Cl)cc4NC(=O)[C@H]3Cc3ccccn3)ccc2C(=O)O)c1 [Example 8q]
6.00 to 7.00

Supply reported pIC50 belonging to this compound: CN1CCN(CC(=O)Nc2cc(CN3C(=O)c4ccc(Cl)cc4NC(=O)[C@H]3Cc3ccccn3)ccc2C(=O)O)CC1 [Example 22j]
5.00 to 6.00
